Assay: Cytotoxicity against human LS180 cells assessed as effect on cell viability at 50 uM measured after 24 hrs by MTT assay relative to control
Format: toxicity, cell-based
Settings: read-out: Activity
reportedMetric: viability at 24 h, 50 µM (%)
Numbers only here, please. The scale is %.

CC(=O)c1ccc(N(Cc2cn(-c3ccc([N+](=O)[O-])cc3)nn2)S(=O)(=O)c2ccccc2)cc1 | 74.7
CC(=O)c1ccc(N(Cc2cn(-c3ccccc3)nn2)S(=O)(=O)c2ccccc2)cc1 | 86.3
CC(=O)c1ccc(N(Cc2cn(-c3ccccc3C(F)(F)F)nn2)S(=O)(=O)c2ccccc2)cc1 | 112

[in] Look up viability at 24 h, 50 µM for this molecule: O=S(=O)(c1ccccc1)N(Cc1cn(-c2c(F)cccc2F)nn1)c1ccc(C(O)(C(F)(F)F)C(F)(F)F)cc1
[out] 74.5

[in] Similarly, CC(=O)c1ccc(N(Cc2cn(-c3cccc([N+](=O)[O-])c3)nn2)S(=O)(=O)c2ccccc2)cc1 ?
[out] 112

[in] Now the same for COc1ccc(-n2cc(CN(c3ccc(C(C)=O)cc3)S(=O)(=O)c3ccccc3)nn2)cc1
[out] 93.3
